Cited source for all entries: patent US20100278929A1

Molecular target: RSV (Long strain) F protein on infectious virus (respiratory syncytial virus (Long strain)) (UniProt P12568)
Sequence (P12568 26-574): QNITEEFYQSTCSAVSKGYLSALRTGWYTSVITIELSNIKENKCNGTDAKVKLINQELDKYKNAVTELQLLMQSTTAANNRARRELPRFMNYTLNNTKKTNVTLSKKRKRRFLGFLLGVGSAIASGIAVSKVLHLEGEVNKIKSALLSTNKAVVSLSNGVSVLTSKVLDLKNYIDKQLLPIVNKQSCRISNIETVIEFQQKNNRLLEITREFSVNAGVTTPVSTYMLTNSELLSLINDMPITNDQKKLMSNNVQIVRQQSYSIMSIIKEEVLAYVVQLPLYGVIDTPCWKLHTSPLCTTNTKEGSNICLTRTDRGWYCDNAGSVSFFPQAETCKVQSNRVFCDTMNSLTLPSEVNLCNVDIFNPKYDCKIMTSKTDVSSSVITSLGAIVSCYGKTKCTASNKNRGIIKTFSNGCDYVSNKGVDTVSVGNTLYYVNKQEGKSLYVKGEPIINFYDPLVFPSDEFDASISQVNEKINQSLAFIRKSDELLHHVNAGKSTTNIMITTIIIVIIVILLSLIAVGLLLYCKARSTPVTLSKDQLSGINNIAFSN
Assay: cell-based or functional assay
If the reported Fold Difference (Curve IC50), against palivizumab equals or exceeds 10 fold, assign Y. If not, assign N.

INSERT INTO measurements (binder, cat) VALUES
  ('P12f2 monoclonal antibody (antibody, V domains shown) VH: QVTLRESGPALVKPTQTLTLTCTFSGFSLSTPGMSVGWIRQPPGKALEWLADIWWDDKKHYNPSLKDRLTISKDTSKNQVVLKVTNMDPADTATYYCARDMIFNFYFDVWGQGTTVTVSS VL: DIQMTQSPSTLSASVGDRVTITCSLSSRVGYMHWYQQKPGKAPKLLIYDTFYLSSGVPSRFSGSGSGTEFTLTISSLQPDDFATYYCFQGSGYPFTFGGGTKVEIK', 'Y'),
  ('A12a6 monoclonal antibody (antibody, V domains shown) VH: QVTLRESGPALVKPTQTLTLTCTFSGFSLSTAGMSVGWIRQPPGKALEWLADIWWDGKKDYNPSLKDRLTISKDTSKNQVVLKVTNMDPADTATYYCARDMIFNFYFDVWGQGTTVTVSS VL: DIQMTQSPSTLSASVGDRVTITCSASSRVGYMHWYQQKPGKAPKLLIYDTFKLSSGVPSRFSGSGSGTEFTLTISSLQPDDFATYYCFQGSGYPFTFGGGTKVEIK', 'Y'),
  ('A1e9 Fab fragment (Fab, V domains shown) VH: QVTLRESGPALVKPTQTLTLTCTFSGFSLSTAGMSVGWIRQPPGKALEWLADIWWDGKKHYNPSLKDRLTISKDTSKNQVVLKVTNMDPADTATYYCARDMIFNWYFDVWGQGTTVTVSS VL: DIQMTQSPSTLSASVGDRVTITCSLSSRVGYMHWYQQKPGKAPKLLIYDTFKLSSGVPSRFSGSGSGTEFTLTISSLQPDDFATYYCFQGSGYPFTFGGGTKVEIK', 'N'),
  ('A13c4 monoclonal antibody (antibody, V domains shown) VH: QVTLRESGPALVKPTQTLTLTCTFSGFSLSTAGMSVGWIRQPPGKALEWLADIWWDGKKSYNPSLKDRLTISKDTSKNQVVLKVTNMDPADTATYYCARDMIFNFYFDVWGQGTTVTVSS VL: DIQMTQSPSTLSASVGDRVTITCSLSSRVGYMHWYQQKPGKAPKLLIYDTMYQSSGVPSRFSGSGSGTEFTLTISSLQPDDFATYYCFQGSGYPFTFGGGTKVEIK', 'Y'),
  ('A13c4 Fab fragment (Fab, V domains shown) VH: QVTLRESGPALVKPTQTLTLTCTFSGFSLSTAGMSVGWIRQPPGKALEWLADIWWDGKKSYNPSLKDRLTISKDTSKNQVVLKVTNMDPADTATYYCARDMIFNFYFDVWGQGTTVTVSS VL: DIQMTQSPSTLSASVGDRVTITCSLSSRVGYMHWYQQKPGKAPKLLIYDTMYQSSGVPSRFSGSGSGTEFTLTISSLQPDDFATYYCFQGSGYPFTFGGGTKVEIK', 'Y');
